# System: A172 cell line (human brain glioblastoma, low S phase)
# assay.notes: Cancer cell uptake, A172; also: unit not given here
# condition.label: (iii) A172
Please enter t where Cell Uptake is greater than or equal to 0.009, and f where it is lower.

Field: example entries. Status: answers known.
INSERT INTO assay_data (compound, assigned_category) VALUES
  ('Cc1cn([C@H]2CC(O)[C@@H](CO)O2)c(=O)n(Cc2cn(CCF)nn2)c1=O (some centres unmarked)', 't'),
  ('Cc1cn([C@H]2CC(F)[C@@H](CO)O2)c(=O)n(CCF)c1=O (some centres unmarked) [Ta-6]', 'f'),
  ('Cc1cn([C@H]2CC(O)[C@@H](CO)O2)c(=O)n(Cc2cn(Cc3cc(F)ccn3)nn2)c1=O (some centres unmarked)', 't');

Prompt: Assess whether reported Cell Uptake for Cc1cn([C@H]2CC(O)[C@@H](CO)O2)c(=O)n(CCn2cc(CF)nn2)c1=O (some centres unmarked) sits at 0.009 or higher.
Response: t

Each recorded value in this set is attributed to patent US7928210B2.
